# Measurement target: TMEM63B
# Experiment notes: reporter assay of Huesken 2005; note: test concentration or dose not given here
# Settings: siRNA
Oligonucleotides are given in HELM: sugar(base)linkage, 5' to 3'; d 2'-deoxyribose, r ribose, m 2'-O-methylribose, p phosphate. ss, as = sense and antisense strand
Measured quantity: normalised inhibition (eCFP-eYFP dual reporter) (%)
Hi! Could you send only the number? It should be in %, unit omitted.

## Task Query (substance): "RNA1{r(C)p.r(C)p.r(C)p.r(G)p.r(U)p.r(G)p.r(U)p.r(U)p.r(A)p.r(C)p.r(A)p.r(A)p.r(C)p.r(G)p.r(U)p.r(G)p.r(G)p.r(C)p.r(U)p.d(T)p.d(T)}|RNA2{r(A)p.r(G)p.r(C)p.r(C)p.r(A)p.r(C)p.r(G)p.r(U)p.r(U)p.r(G)p.r(U)p.r(A)p.r(A)p.r(C)p.r(A)p.r(C)p.r(G)p.r(G)p.r(G)p.d(C)p.d(G)}$$$RNA1{StrandType:ss}|RNA2{StrandType:as}$" ; field requested: normalised inhibition (eCFP-eYFP dual reporter)
## Result 75.8

## Task Give its normalised inhibition (eCFP-eYFP dual reporter) value. Item: "RNA1{r(G)p.r(C)p.r(A)p.r(C)p.r(A)p.r(U)p.r(C)p.r(A)p.r(U)p.r(C)p.r(G)p.r(G)p.r(G)p.r(C)p.r(U)p.r(G)p.r(C)p.r(U)p.r(G)p.d(T)p.d(T)}|RNA2{r(C)p.r(A)p.r(G)p.r(C)p.r(A)p.r(G)p.r(C)p.r(C)p.r(C)p.r(G)p.r(A)p.r(U)p.r(G)p.r(A)p.r(U)p.r(G)p.r(U)p.r(G)p.r(C)p.d(C)p.d(G)}$$$RNA1{StrandType:ss}|RNA2{StrandType:as}$"
## Result 69.9

---

# Measurement target: UBE2D3
# Experiment notes: reporter assay of Huesken 2005
# Settings: siRNA
Oligonucleotides are given in HELM: sugar(base)linkage, 5' to 3'; d 2'-deoxyribose, r ribose, m 2'-O-methylribose, p phosphate. ss, as = sense and antisense strand
Measured quantity: normalised inhibition (eCFP-eYFP dual reporter) (%)
Please give a number only; it is taken to be in %.

## Task For "RNA1{r(U)p.r(A)p.r(A)p.r(U)p.r(G)p.r(A)p.r(C)p.r(A)p.r(G)p.r(C)p.r(C)p.r(C)p.r(A)p.r(U)p.r(A)p.r(U)p.r(C)p.r(A)p.r(A)p.d(T)p.d(T)}|RNA2{r(U)p.r(U)p.r(G)p.r(A)p.r(U)p.r(A)p.r(U)p.r(G)p.r(G)p.r(G)p.r(C)p.r(U)p.r(G)p.r(U)p.r(C)p.r(A)p.r(U)p.r(U)p.r(A)p.d(G)p.d(G)}$$$RNA1{StrandType:ss}|RNA2{StrandType:as}$" , what is its reported normalised inhibition (eCFP-eYFP dual reporter)?
## Result 97.7

## Task Reported normalised inhibition (eCFP-eYFP dual reporter) for "RNA1{r(G)p.r(U)p.r(C)p.r(C)p.r(A)p.r(G)p.r(U)p.r(U)p.r(G)p.r(G)p.r(G)p.r(G)p.r(A)p.r(U)p.r(G)p.r(A)p.r(U)p.r(A)p.r(U)p.d(T)p.d(T)}|RNA2{r(A)p.r(U)p.r(A)p.r(U)p.r(C)p.r(A)p.r(U)p.r(C)p.r(C)p.r(C)p.r(C)p.r(A)p.r(A)p.r(C)p.r(U)p.r(G)p.r(G)p.r(A)p.r(C)p.d(C)p.d(T)}$$$RNA1{StrandType:ss}|RNA2{StrandType:as}$" : what is it?
## Result 88.3

## Task # get_value(readout='normalised inhibition (eCFP-eYFP dual reporter)', item= "RNA1{r(U)p.r(G)p.r(G)p.r(C)p.r(A)p.r(G)p.r(C)p.r(A)p.r(U)p.r(U)p.r(U)p.r(G)p.r(U)p.r(C)p.r(U)p.r(C)p.r(G)p.r(A)p.r(U)p.d(T)p.d(T)}|RNA2{r(A)p.r(U)p.r(C)p.r(G)p.r(A)p.r(G)p.r(A)p.r(C)p.r(A)p.r(A)p.r(A)p.r(U)p.r(G)p.r(C)p.r(U)p.r(G)p.r(C)p.r(C)p.r(A)p.d(T)p.d(T)}$$$RNA1{StrandType:ss}|RNA2{StrandType:as}$" )
## Result 99.6
